# credit: ChEMBL document CHEMBL4196149

Recorded measurements of pIC50, one per entry
Tested on: MDA-MB-231
Measurement Notes: Antiproliferative activity against human MDA-MB-231 cells after 24 hrs by SRB assay
Type: functional, cell-based
Settings: MDA-MB-231, 24 h
As a rule, pIC50 stands for the negative log10 of the concentration, concentration in M.

Exercise: Give the reported pIC50 for CC[C@H]1CN2CCc3c(cc(OC)c(OC)c3O)[C@@H]2C[C@@H]1C[C@H]1NCCc2c1[nH]c1ccc(O)cc21 (system: MDA-MB-231).
Solution: 7.22

Exercise: Try the compound CC[C@H]1CN2CCc3cc(O)c(OC)cc3[C@@H]2C[C@@H]1C[C@H]1NCCc2c1[nH]c1ccc(O)cc21
Solution: 6.72
